// values below are reported % Iodine
Assay: Iodine content
Assay type: physicochemical

Worked set:
molecule	% Iodine
COCC(=O)Nc1c(I)c(C(=O)NCC(=O)Nc2c(I)c(C(=O)N(CCO)CCO)c(I)c(C(=O)N(CCO)CCO)c2I)c(I)c(C(=O)NCC(O)CO)c1I (stereo not shown)	51,6%
O=C(NCCO)c1c(I)c(C(=O)NCCO)c(I)c(N(CCO)C(=O)CN(CCO)C(=O)c2c(I)c(C(=O)NCC(O)CO)c(I)c(N(CCO)C(=O)CO)c2I)c1I (stereo not shown)	50,5%
COCC(=O)Nc1c(I)c(C(=O)NCC(=O)Nc2c(I)c(C(=O)NC(CO)C(O)CO)c(I)c(C(=O)NC(CO)C(O)CO)c2I)c(I)c(C(=O)NCC(O)CO)c1I (stereo not shown)	50,5%
CN(CC(=O)N(C)c1c(I)c(C(=O)N(CCO)CCO)c(I)c(C(=O)N(CCO)CCO)c1I)C(=O)c1c(I)c(NC(=O)CO)c(I)c(C(=O)NCC(O)CO)c1I (stereo not shown)	51,1%
COCC(=O)Nc1c(I)c(C(=O)NCC(=O)N(C)c2c(I)c(C(=O)NC(CO)C(O)CO)c(I)c(C(=O)NC(CO)C(O)CO)c2I)c(I)c(C(=O)NCC(O)CO)c1I (stereo not shown)	50%

Q. Please look up its % Iodine: COCCN(C(=O)CO)c1c(I)c(C(=O)NCC(=O)N(CCOC)c2c(I)c(C(=O)NCC(O)CO)c(I)c(C(=O)NCC(O)CO)c2I)c(I)c(C(=O)NCC(O)CO)c1I (stereo not shown)
A. 49,1%

Q. Also, COCC(=O)Nc1c(I)c(C(=O)NCC(=O)N(C)c2c(I)c(C(=O)N(C)CC(O)CO)c(I)c(C(=O)N(C)CC(O)CO)c2I)c(I)c(C(=O)NCC(O)CO)c1I (stereo not shown) please.
A. 51,1%

###

Assay: Iodine content
Assay type: physicochemical
// values below are reported % Iodine

Worked set:
molecule	value type	measured value
COCC(=O)Nc1c(I)c(C(=O)N(C)CC(=O)N(C)c2c(I)c(C(=O)NCC(O)CO)c(I)c(C(=O)NCC(O)CO)c2I)c(I)c(C(=O)N(CCO)CC(O)CO)c1I (stereo not drawn)	% Iodine	50,0%
CC(=O)Nc1c(I)c(C(=O)NCC(O)CO)c(I)c(C(=O)N(C)CC(=O)N(C)c2c(I)c(C(=O)NC(CO)C(O)CO)c(I)c(C(=O)NC(CO)C(O)CO)c2I)c1I (stereo not drawn)	% Iodine	50,6%
CN(CC(=O)N(C)c1c(I)c(C(=O)NCC(O)CO)c(I)c(C(=O)NCC(O)CO)c1I)C(=O)c1c(I)c(NC(=O)CO)c(I)c(C(=O)NCC(O)CO)c1I (stereo not drawn)	% Iodine	52%

# ---- query molecule ----
Q. Please look up its % Iodine: COCC(=O)Nc1c(I)c(C(=O)NCC(O)CO)c(I)c(C(=O)N(CCO)CC(=O)Nc2c(I)c(C(=O)NC(CO)C(O)CO)c(I)c(C(=O)NC(CO)C(O)CO)c2I)c1I (stereo not drawn)
A. 49%

###

Assay: Iodine content
Format: physicochemical
// values below are reported % Iodine

Worked set:
compound	value type	measured value
COCC(=O)Nc1c(I)c(C(=O)NCC(O)CO)c(I)c(C(=O)N(C)CC(=O)N(C)c2c(I)c(C(=O)N(C)CC(O)CO)c(I)c(C(=O)N(C)CC(O)CO)c2I)c1I (centres unmarked)	% Iodine	50,6%
CN(CC(O)CO)C(=O)c1c(I)c(C(=O)N(C)CC(O)CO)c(I)c(N(C)C(=O)CNC(=O)c2c(I)c(NC(=O)CO)c(I)c(C(=O)NCC(O)CO)c2I)c1I (centres unmarked)	% Iodine	51,6%
COCC(=O)Nc1c(I)c(C(=O)NCC(=O)Nc2c(I)c(C(=O)N(C)CC(O)CO)c(I)c(C(=O)N(C)CC(O)CO)c2I)c(I)c(C(=O)NC(CO)C(O)CO)c1I (centres unmarked)	% Iodine	50,5%
COCC(=O)Nc1c(I)c(C(=O)NCC(O)CO)c(I)c(C(=O)N(C)CC(=O)N(C)c2c(I)c(C(=O)N(CCO)CCO)c(I)c(C(=O)N(CCO)CCO)c2I)c1I (centres unmarked)	% Iodine	50,6%

# ---- query compound ----
Q. Please look up its % Iodine: COCC(=O)Nc1c(I)c(C(=O)NC(CO)C(O)CO)c(I)c(C(=O)N(C)CC(=O)N(C)c2c(I)c(C(=O)NC(CO)C(O)CO)c(I)c(C(=O)NC(CO)C(O)CO)c2I)c1I (centres unmarked)
A. 48,6%
